- Target Or Test System: human CB1 receptor (Homo sapiens)
- Sequence (P21554 whole entry): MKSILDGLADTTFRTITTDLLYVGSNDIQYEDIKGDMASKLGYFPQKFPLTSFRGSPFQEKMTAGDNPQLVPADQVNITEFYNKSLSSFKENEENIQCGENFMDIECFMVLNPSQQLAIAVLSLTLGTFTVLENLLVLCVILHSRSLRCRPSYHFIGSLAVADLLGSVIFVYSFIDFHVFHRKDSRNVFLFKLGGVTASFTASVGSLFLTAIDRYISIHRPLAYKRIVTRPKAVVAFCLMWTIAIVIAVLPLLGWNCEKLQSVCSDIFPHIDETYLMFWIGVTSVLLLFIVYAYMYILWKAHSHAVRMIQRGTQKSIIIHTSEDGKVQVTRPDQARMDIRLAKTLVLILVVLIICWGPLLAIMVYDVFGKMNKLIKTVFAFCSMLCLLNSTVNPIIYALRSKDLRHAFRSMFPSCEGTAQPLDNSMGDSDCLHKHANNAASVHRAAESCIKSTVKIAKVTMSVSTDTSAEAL
// assign 1 (yes) if Ki falls strictly below 100 nM, else 0 (no) (ties count as 0 (no))

Here's what some known entries look like.
{"Compound": "C[C@H](CO)NC(=O)CCC/C=C\\C/C=C\\C/C=C\\C/C=C\\C(C)(C)CCCCn1ccnc1 [Compound O-4368]", "Category": "1 (yes)"}
{"Compound": "C[C@H](CO)NC(=O)CCC/C=C\\C/C=C\\C/C=C\\C/C=C\\C(C)(C)CCCCn1cncn1 [Compound O-2955]", "Category": "0 (no)"}
{"Compound": "C[C@H](CO)NC(=O)CCC/C=C\\C/C=C\\C/C=C\\C/C=C\\C(C)(C)CCCCN1CCOCC1 [Compound O-4316]", "Category": "1 (yes)"}
{"Compound": "C[C@H](CO)NC(=O)CCC/C=C\\C/C=C\\C/C=C\\C/C=C\\C(C)(C)CCCCN1CCCCC1 [Compound O-4386]", "Category": "1 (yes)"}

# evaluate next
Strictly below 100 nM in Ki? C[C@H](CO)NC(=O)CCC/C=C\C/C=C\C/C=C\C/C=C\C(C)(C)CCCCn1cccn1 [Compound O-2954]
0 (no)

---

- Test system: ICR mice
- Assay Overview: Tetrad model: relative immobility (RI), ring-immobility test
- Assay type: in vivo
- Test Parameters: Mus musculus, iv, 40 min; i.v., ring immobility 40 min after injection; read-out: R.I. ED50
The entries below come with measured ED50 values attached.
Number in mg/kg, nothing else.

Answered examples (5):
{"Smiles Str": "C[C@H](CO)NC(=O)CCC/C=C\\C/C=C\\C/C=C\\C/C=C\\C(C)(C)CCCCn1ccnc1", "Readout Type": "ED50", "Observed Value": 0.25}
{"Smiles Str": "C[C@H](CO)NC(=O)CCC/C=C\\C/C=C\\C/C=C\\C/C=C\\C(C)(C)CCCCN1CCCC1", "Readout Type": "ED50", "Observed Value": 0.84}
{"Smiles Str": "C[C@H](CO)NC(=O)CCC/C=C\\C/C=C\\C/C=C\\C/C=C\\C(C)(C)CCCCN1CCOCC1", "Readout Type": "ED50", "Observed Value": 0.03}
{"Smiles Str": "C[C@H](CO)NC(=O)CCC/C=C\\C/C=C\\C/C=C\\C/C=C\\C(C)(C)CCCCn1cccn1", "Readout Type": "ED50", "Observed Value": 0.57}
{"Smiles Str": "C[C@H](CO)NC(=O)CCC/C=C\\C/C=C\\C/C=C\\C/C=C\\C(C)(C)CCCCn1cncn1", "Readout Type": "ED50", "Observed Value": 2.21}

What the record says about "C[C@H](CO)NC(=O)CCC/C=C\C/C=C\C/C=C\C/C=C\C(C)(C)CCCCN1CCCCC1" : ED50 is 0.7
